B1: WDFY2 (parent)
chain: FWNFKQMWDSKKIGLRQHHCRKCG

# Variants of: B1
# protocol.details: protein stability index of a GFP-peptide fusion (GPS, HEK-293T) (PSI 1-6); higher = more stable;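 note: lentivirally expressed fusions sorted by FACS into six bins by GFP to DsRed ratio, PSI derived from sequencing read proportions per bin multiplied by bin number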
# particulars: c terminus: a fixed tail appended
// label = T if protein stability index is not less than 2, otherwise F

Q17M : F
C20V : F
W8F : T

# bool: protein stability index of N3I >= 2 F

# bool: protein stability index of R21Q >= 2 T

# bool: protein stability index of S10F >= 2 F

# bool: protein stability index of N3A >= 2 F

# bool: protein stability index of I13P >= 2 F

# bool: protein stability index of F4T >= 2 T

# bool: protein stability index of G14M >= 2 F

# bool: protein stability index of G14Q >= 2 F

# bool: protein stability index of F4M >= 2 T
